Measured RUNX1 binding intensity accompanies every entry in the list below.
Target: RUNX1 (UniProt Q01196)
Sequence (Q01196 whole entry): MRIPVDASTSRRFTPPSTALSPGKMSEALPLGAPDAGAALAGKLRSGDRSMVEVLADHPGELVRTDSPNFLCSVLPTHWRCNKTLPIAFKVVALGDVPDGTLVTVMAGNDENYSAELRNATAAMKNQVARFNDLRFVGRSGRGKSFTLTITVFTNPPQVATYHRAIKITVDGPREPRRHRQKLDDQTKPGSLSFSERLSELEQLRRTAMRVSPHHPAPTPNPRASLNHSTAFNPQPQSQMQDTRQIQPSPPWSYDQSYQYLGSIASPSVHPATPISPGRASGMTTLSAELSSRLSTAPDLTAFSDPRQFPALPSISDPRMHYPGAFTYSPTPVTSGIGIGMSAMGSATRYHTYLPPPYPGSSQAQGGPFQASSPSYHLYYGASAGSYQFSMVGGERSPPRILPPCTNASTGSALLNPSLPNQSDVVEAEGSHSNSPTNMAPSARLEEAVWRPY
Assay: RUNX1 binding intensity (PBM fluorescence), RUNX1 alone (arbitrary fluorescence units); higher = stronger binding
Details: RUNX1 concentration 2 nM; ETS1 concentration 0 nM

SEQUENCE_DATA: TGCAGTCTCAACTTCCTGCGGTCAAGTGATCCTTCA
RUNX1 binding intensity: 3750

SEQUENCE_DATA: AAATATAGTGCTAAAGGAAGTGGTTTTCATGCAACT
RUNX1 binding intensity: 670

SEQUENCE_DATA: AAACCAGAGAGGAAGTGGCACCACATGGCCAGACTG
RUNX1 binding intensity: 755

SEQUENCE_DATA: GGCCCGGCCGGAAGAAGCCACCTCCCCCGCACGCGT
RUNX1 binding intensity: 849

SEQUENCE_DATA: TCTGGGACAGGAAAGACTTGTGGTTACTGCTGTTGA
RUNX1 binding intensity: 1390

SEQUENCE_DATA: AGGCCCCGCCCCTTCCGCCCACAGAGCCCGCCACTT
RUNX1 binding intensity: 1100

SEQUENCE_DATA: TGGGGCCCGGAAGCGCTGGCGCCTTGCGGCCAGAAG
RUNX1 binding intensity: 707

SEQUENCE_DATA: TCTTCTTCCTCCCCCACCCCAAAAGCCACAGGTGAC
RUNX1 binding intensity: 1290

SEQUENCE_DATA: GCGCGGCCCGGAAGGGGGTAACCGCTGAGTCTTTGA
RUNX1 binding intensity: 784

SEQUENCE_DATA: TTATTTCCTCTTTTTTTTTTTTTTTTTGGTTTTGCT
RUNX1 binding intensity: 1960

SEQUENCE_DATA: GCTCTTCACTTCCTGTGGCTCCCGCAGCGGCCGCCG
RUNX1 binding intensity: 1090

SEQUENCE_DATA: AACGACAAACCGGAAGTATGGTTTGCCGCCTGAAGC
RUNX1 binding intensity: 754

SEQUENCE_DATA: CAGCAGAGGCGCGGATGTGGTTAAACGAGTGCCGTC
RUNX1 binding intensity: 876

SEQUENCE_DATA: TGAGCAAGTTCCTTCCTGTCTGTGGTCCAGGGTTTA
RUNX1 binding intensity: 747

SEQUENCE_DATA: GGCGCGGGCTGCTTCCGGTCTGCGGGCCTGAGGAGG
RUNX1 binding intensity: 672

SEQUENCE_DATA: ATGTTTGGGGCCGGAAGTGGGTTGGAGGTGTGGCGG
RUNX1 binding intensity: 706

SEQUENCE_DATA: ACGTTTCGGGGTTTCCGGGCCAGCGGTTTCGGGCGC
RUNX1 binding intensity: 937

SEQUENCE_DATA: AGCAGGGCTCGCCGGGAAATGTGGTTTCTCCAGCCG
RUNX1 binding intensity: 843

SEQUENCE_DATA: GAAATGAGAGAACGGAAACCACAAGTCAAGGGGCTT
RUNX1 binding intensity: 3620

SEQUENCE_DATA: AGCTGAAGGGCAGGATGTGGTTTCAGCATTCGGTGA
RUNX1 binding intensity: 791

SEQUENCE_DATA: CCAACAGTACCCTTCCTCCCTTAACCACAAGACTGA
RUNX1 binding intensity: 5500

SEQUENCE_DATA: GGGCTATTGTTTCCTCCCCCATGTGACCACAGCCTC
RUNX1 binding intensity: 994

SEQUENCE_DATA: CCCTGACTTTTACGGAAATAGCGGTCCAAAAGCGCC
RUNX1 binding intensity: 880

SEQUENCE_DATA: TCAGAACCAGGAAACTGAAGGCGGTTACTCCACATA
RUNX1 binding intensity: 742

SEQUENCE_DATA: GGGAGGCCCCATCCTGTGTGGCTGTGGCTTTTGCCT
RUNX1 binding intensity: 653

* * *

Molecular target: ETS1 (UniProt P14921)
Sequence: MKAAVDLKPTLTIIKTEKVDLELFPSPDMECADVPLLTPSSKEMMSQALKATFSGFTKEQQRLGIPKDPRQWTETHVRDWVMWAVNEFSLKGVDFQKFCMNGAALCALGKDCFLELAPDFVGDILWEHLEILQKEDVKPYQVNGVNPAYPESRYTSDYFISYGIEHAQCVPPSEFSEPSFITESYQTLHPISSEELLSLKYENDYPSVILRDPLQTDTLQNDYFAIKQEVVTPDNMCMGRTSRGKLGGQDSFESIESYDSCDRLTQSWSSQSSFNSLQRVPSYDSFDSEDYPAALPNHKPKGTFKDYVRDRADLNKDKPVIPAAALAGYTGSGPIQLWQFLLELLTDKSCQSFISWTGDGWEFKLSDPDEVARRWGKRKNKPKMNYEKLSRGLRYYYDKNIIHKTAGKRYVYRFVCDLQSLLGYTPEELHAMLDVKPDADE
Experiment: ETS1 binding intensity (PBM fluorescence), ETS1 alone (arbitrary fluorescence units); higher = stronger binding
Conditions: ETS1 concentration 1 nM; RUNX1 concentration 0 nM
Measured ETS1 binding intensity accompanies every entry in the list below.

SEQUENCE_DATA: GGCCGGAAGCGCTCTCGTTGGCCCTGCGGCGCTGGA
ETS1 binding intensity: 2120
//
SEQUENCE_DATA: TATTCTTCCTGTACTTAAGCTTGCTGGTGTGGTTTC
ETS1 binding intensity: 397
//
SEQUENCE_DATA: CTCCTGAGGAAGTAGTTACAGACACCACAGCGGAGG
ETS1 binding intensity: 511
//
SEQUENCE_DATA: GTTGCCCCACTTCCTGCCAGTGGTTTTTGGTTGGCC
ETS1 binding intensity: 2660
//
SEQUENCE_DATA: CTTCTTTCCAGAGGATGTGGCTTCAGCGGGAGAGCT
ETS1 binding intensity: 1250
//
SEQUENCE_DATA: TCTGCCGCCAGCCCATCCGCGACCGCATCCAGATCT
ETS1 binding intensity: 346
//
SEQUENCE_DATA: CCCTCTGAGACAGGATTTGCTTCCCACACAAGGCTA
ETS1 binding intensity: 495
//
SEQUENCE_DATA: GAAGTGAGGTCAGGATGTGGTGGGTGACCCCTGAAA
ETS1 binding intensity: 911
//
SEQUENCE_DATA: TTTCGAGAAAACCGGAAGTGCGTGGTCACGCCCCGC
ETS1 binding intensity: 29400
//
SEQUENCE_DATA: GGGCGCGACTTCCGGGGCGGCGGTTGCATCAGATTC
ETS1 binding intensity: 1580
//
SEQUENCE_DATA: GTTTTCAAGGCAGGAAGTGGCTGTGGTGGCACGGAG
ETS1 binding intensity: 13700
//
SEQUENCE_DATA: TGCAGCTATGGCCGGAAGCCTGTGGGTGTGGGAGGA
ETS1 binding intensity: 4180

* * *

Biological target: RUNX1 (UniProt Q01196)
Assay: RUNX1 binding intensity (PBM fluorescence) in presence of ETS1, normalised to RUNX1-only experiment (arbitrary fluorescence units); higher = stronger binding
Details: RUNX1 concentration 2 nM; ETS1 concentration 25 nM
Measured RUNX1 binding intensity accompanies every entry in the list below.

SEQUENCE_DATA: CTCTTTCACAAAGGAAATGGAAACCACAAAGAGGAC
RUNX1 binding intensity: 3930
//
SEQUENCE_DATA: ATGTCCCCAGGAGGATGTGGTGTGTCCACAGGAGGA
RUNX1 binding intensity: 875
//
SEQUENCE_DATA: TCGGAGACGGCGAAAGGAAACCGCAAGGAGGCCACC
RUNX1 binding intensity: 9290
//
SEQUENCE_DATA: TACTTCTTCCTGGCAGAGACCGGGAGTGCGGTCCGC
RUNX1 binding intensity: 920
//
SEQUENCE_DATA: GTCCCCGTAACAGGATGTGGTGAGCTGTTATACCAC
RUNX1 binding intensity: 4520
//
SEQUENCE_DATA: ACTTCACTTCCCAACCTCCCCTGTGGTTAGGTGTGG
RUNX1 binding intensity: 1220
//
SEQUENCE_DATA: GTTTCCACTTCCTGCTGTGCAGCAGTACCACCAAGA
RUNX1 binding intensity: 2800
//
SEQUENCE_DATA: GATCCCCCTCCTCCATCCTGTGGCTTCGGGTTGCCG
RUNX1 binding intensity: 1150
//
SEQUENCE_DATA: TGACATCCTCTGAGGCAGCAAGCTGCGGTGAAGTCT
RUNX1 binding intensity: 1300
//
SEQUENCE_DATA: TCCTATATACTTCCGTTTGCCTCGCGGTTTCTTTCT
RUNX1 binding intensity: 4520
//
SEQUENCE_DATA: TGAAACCCAGCAGGATGTGGGTTAACGGCAGGGGAG
RUNX1 binding intensity: 2250
//
SEQUENCE_DATA: AGAAGCTTCTACAGGAAACCACTAATGGAGACAGAG
RUNX1 binding intensity: 958
//
SEQUENCE_DATA: ACTCCAGAGGAAGTGGCAAGACGAGCGCGGTAACGG
RUNX1 binding intensity: 1330
//
SEQUENCE_DATA: ATGTCAGGAAGAGGCTCAGGGCTGTGGTTTCTCTGT
RUNX1 binding intensity: 1070
//
SEQUENCE_DATA: TTCATTTCTACCTTCCTGTGGTCTTTTTGCCTCCGA
RUNX1 binding intensity: 2320
//
SEQUENCE_DATA: TGTATGAAAAAAACAGGAAACCACAGAGAACTGAGG
RUNX1 binding intensity: 2060
//
SEQUENCE_DATA: TTTAGACACCGCTTCCTGCCACAAGCCCAAGACTTA
RUNX1 binding intensity: 3470
//
SEQUENCE_DATA: GCTTACACTTCCTCCCTGAACCCCTGCGGTTTCACA
RUNX1 binding intensity: 10200
//
SEQUENCE_DATA: CGGGAGGGGCAGGAAGCGGACTGCGGTGGGGAAGGG
RUNX1 binding intensity: 1470
//
SEQUENCE_DATA: AGCTTTCCTTTTCCGGTTGCGGCGCCGCGCGTTGAT
RUNX1 binding intensity: 2340
//
SEQUENCE_DATA: GGAGGAAGTGACACCCACCCACTGCCCCCGCAAGGT
RUNX1 binding intensity: 963
//
SEQUENCE_DATA: CAACAACCGGAAGTGGGGCGGGCCGCAGTACCCGCC
RUNX1 binding intensity: 3010
//
SEQUENCE_DATA: TTTATCATGAATGCAGGATGTGGGCAGACTCACAGC
RUNX1 binding intensity: 1280
//
SEQUENCE_DATA: CCTCTGTTCTTCACAGGAAGCCACAGGCCTCCCCTG
RUNX1 binding intensity: 1050
//
SEQUENCE_DATA: GCAAACAGCACATCCGGTGTGGTCGACGGGTCCTCC
RUNX1 binding intensity: 1830
//
SEQUENCE_DATA: GGAGGCGGAAGTGGAGGTTGTTGTGGCTCCGAGGGC
RUNX1 binding intensity: 1100
//
SEQUENCE_DATA: AGAGGCAGTTCCGGGGTGGGAACCGCGCGGAGCTTT
RUNX1 binding intensity: 1220
//
SEQUENCE_DATA: TATGTGTTTTAGGCAGGATGTGGGTTTTAGTCTTTC
RUNX1 binding intensity: 2200
//
SEQUENCE_DATA: CCCTGAGCACTTCCCCGTAAGGCTGCGGTGCACGGG
RUNX1 binding intensity: 844
//
SEQUENCE_DATA: CGAGCAGGAAGTGGCAAGATTTGATAGGCGGTCAGG
RUNX1 binding intensity: 1450
//
SEQUENCE_DATA: TCAAGAAAACAGGAAACTCTCAAAACCAAGTTCTGA
RUNX1 binding intensity: 931
//
SEQUENCE_DATA: TGTGATAAGGATGTTCGTGTGCCTTGTGGTCAGGTG
RUNX1 binding intensity: 905
//
SEQUENCE_DATA: TCTGTCGTCCCACTTCCTGCTGCGGTTTCCACCTCG
RUNX1 binding intensity: 21300
//
SEQUENCE_DATA: GAGACTTTCGCTTCCGGCTGCCGCAGGCGCTTCGCT
RUNX1 binding intensity: 1550
//
SEQUENCE_DATA: GAAGCTACTCTGGTTTCCTGTGGTTTTCTGAGCACT
RUNX1 binding intensity: 2900
//
SEQUENCE_DATA: ACTAGAAGCGGAAGTAGTTGTGGGCGCCTTTGCAAC
RUNX1 binding intensity: 1410
//
SEQUENCE_DATA: GTTGGGTGGGGAAGTGGATGGTGGTTTTGGCAGAGG
RUNX1 binding intensity: 1210
//
SEQUENCE_DATA: CCATTCTTCCGGTGGAGATGGCTGCGGCCGTGGCGG
RUNX1 binding intensity: 2240
//
SEQUENCE_DATA: TGGGCAAGATATCCTGGAAGTGGTTAAAAAAAATTA
RUNX1 binding intensity: 1060
//
SEQUENCE_DATA: CTGCCGCGACAGACAGGATGTGGCTTCTGCTCTGTC
RUNX1 binding intensity: 1960
//
SEQUENCE_DATA: GCACTGTGGGAGGAAGTGGGTATGTGGTGAGCTCTT
RUNX1 binding intensity: 1560
//
SEQUENCE_DATA: TTACAGGGGCCGGAAGTGGCCTGCGGGCGGAGAAGT
RUNX1 binding intensity: 2020
//
SEQUENCE_DATA: ATTTTTCCTTCCTTCTCCCGTCCCCGCAGAGTGCAA
RUNX1 binding intensity: 1520
//
SEQUENCE_DATA: AGATGCAAACACAGGAAACTTGTGGTCTATGCTGCT
RUNX1 binding intensity: 1160
//
SEQUENCE_DATA: GCAACAGGAAGGACCAAGTCCCCTCCCGCAATTTTA
RUNX1 binding intensity: 1020
//
SEQUENCE_DATA: GCTCCGCTTCCGGGAGGCGGGGCTTCTGCGGGTTCC
RUNX1 binding intensity: 1710
//
SEQUENCE_DATA: AAACCAGAGAGGAAGTGGCACCACATGGCCAGACTG
RUNX1 binding intensity: 1140
//
SEQUENCE_DATA: AGAAGGCGCCGGAAGTGGTCCCGCAGAGGCGGGGTG
RUNX1 binding intensity: 2500
//
SEQUENCE_DATA: GAGGGCCTGGGAGGAAGTGGGTTTTGCATACAGTCC
RUNX1 binding intensity: 1330
//
SEQUENCE_DATA: GAAGCGCTGGGCGGAAGTGGCTGTGGCTTTGCCCTT
RUNX1 binding intensity: 1620
